assay: suppressors of statin myotoxicity in C2C12 myotubes, primary screen, cell-based, single point, plate reader (AID 602340); details: C2C12 myotubes + simvastatin, ATP luminescence, 48 h; at 7.49 µM;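 further: myotubes were challenged with 10 µM simvastatin during compound exposure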
Among all 330,000 compounds or so, about 2,600 (0.79%) were called active.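 How the source made its calls: active means mean ATP rescue above about 67%, or every replicate alone reaching that limit (limit read from the data, passing the limit was not always enough); inconclusive means no clear call, values can overlap the other calls; inactive means mean under the limit and some replicate under it.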 Many of the other results were omitted from the sample, so actives are more common in it than they were.
Respond using exactly one of the listed classes: active, inactive

Field: example entries. Status: answers known.
{"columns": ["compound", "class_label"],
 "data": [
  ["CCn1cc(CN2CCCC(C(=O)c3cccc(C(F)(F)F)c3)C2)cn1 (stereo not drawn)", "inactive"],
  ["CCN1CCN(C(=O)Cc2coc3cc(C)cc(C)c23)CC1", "active"],
  ["COc1ccccc1CN1CCN(C(=O)Cc2ccccc2)CC1", "inactive"],
  ["Cc1ccc(C2CN(C)CC2C(=O)c2ccc(F)cc2)cc1 (stereo not drawn)", "inactive"],
  ["COc1ccc(C(=O)C2CN(C)CC2C(=O)c2ccc(OC)cc2)cc1 (stereo not drawn)", "active"],
  ["Cc1cc(OCc2cc(C(=O)O)oc2C)c2c3c(c(=O)oc2c1)CCCC3", "inactive"],
  ["O=C(O)[C@H]1[C@H](CO)[C@H]2Cn3c(ccc(-c4ccccc4)c3=O)[C@@H]1N2S(=O)(=O)c1ccccc1F", "inactive"]
]}

For COc1cccc(C(c2nnnn2-c2ccc3c(c2)OCCO3)N2CCC3(CC2)C(=O)NCN3c2ccccc2)c1OC (stereo not drawn) , which call appears in the assay record? inactive
